Test system: oilseed rape
Assay: Test C postemergence
Type: in vivo, Brassica napus
Details: 31 g ai/ha, postemergence; visual rating, scale 0 to 100 (0 no effect, 100 complete control), 13 to 15 days
Short version: Oilseed Rape plant response rating at least 40 is fulfilled, less is not fulfilled.

Sample answers from the record:
smilesnotation=FC(F)(F)c1cn(-c2ccccc2Oc2ncc(Cl)cn2)nn1 tgt="oilseed rape" cat=fulfilled
smilesnotation=Fc1cccc(Oc2ncc(Cl)cn2)c1-n1cc(Br)cn1 tgt="oilseed rape" cat=fulfilled
smilesnotation=FCc1cn(-c2c(F)cccc2Oc2ncc(Cl)cn2)nn1 tgt="oilseed rape" cat=fulfilled

Would you say "FC(F)c1cccc(Oc2ncc(Cl)cn2)c1-n1cc(Br)cn1" shows Oilseed Rape plant response rating at minimum 40?
not fulfilled

Reported Oilseed Rape plant response rating at or above 40? "N#Cc1cnn(-c2c(Oc3ncc(Cl)cn3)cccc2C(F)F)c1"
not fulfilled

hey, is Oilseed Rape plant response rating for this one >= 40? "N#Cc1cccc(Oc2ncc(Cl)cn2)c1-n1cc(-n2ccc(C(F)(F)F)n2)cn1"
fulfilled

====

# Lookup of reported Plant response rating, Waterhemp keyed by entry
System: waterhemp
Experiment: Test C preemergence
Assay type: in vivo, Amaranthus rudis
Settings: Preemergence, 31 g ai/ha; scale 0 to 100, 0 no effect, 100 complete control
Give your answer as a number; write no unit.

Worked cases, answers included:
smilesnotation=Fc1cnc(Oc2cccc(C(F)F)c2-n2cc(Br)cn2)nc1 tgt=waterhemp measuredresult=98
smilesnotation=CCOc1cnn(-c2c(C#N)cccc2Oc2ncc(F)cn2)c1 tgt=waterhemp measuredresult=100
smilesnotation=FCc1cccc(Oc2ncc(F)cn2)c1-n1cc(C(F)(F)F)cn1 tgt=waterhemp measuredresult=100
smilesnotation=N#Cc1cn(-c2c(Br)cccc2Oc2ncc(Cl)cn2)nn1 tgt=waterhemp measuredresult=100

Give the reported value of Plant response rating, Waterhemp for this record: "CCOc1cnn(-c2c(C#N)cccc2Oc2ncc(Cl)cn2)c1"
98

====

Plant response rating (0 to 100), Johnsongrass overview
Tested on: johnsongrass
Assay: Test C postemergence
Format: in vivo, Sorghum halepense
Conditions: 16 g ai/ha, postemergence; 0 is no effect, 100 is complete control
In your answer, state the number alone without any accompanying words.

Answered cases to consult:
smilesnotation=CC(=NO)c1cn(-c2c(Br)cccc2Oc2ncc(Cl)cn2)nn1 measuredresult=5
smilesnotation=FC(F)(F)c1cnn(-c2c(Cl)cccc2Oc2ncc(Cl)cn2)c1 measuredresult=5
smilesnotation=Fc1cccc(Oc2ncc(Cl)cn2)c1-n1cc(C2CC2)nn1 measuredresult=0

# lookup: johnsongrass Plant response rating (0 to 100), Johnsongrass, key = "Cc1cnc(Oc2cccc(C#N)c2-n2cc(I)cn2)nc1"
0

Tell me Plant response rating (0 to 100), Johnsongrass of "FCc1cccc(Oc2ncc(Br)cn2)c1-n1cc(C(F)(F)F)cn1" when tested on johnsongrass.
0

Jot down Plant response rating (0 to 100), Johnsongrass (johnsongrass) of "CCCOc1cnn(-c2c(C#N)cccc2Oc2ncc(Cl)cn2)c1" .
0

====

Tested on: Brazilian crabgrass
Test: Test E preemergence
Assay type: in vivo, Digitaria horizontalis
Details: 31 g ai/ha, scale 0 to 100 (0 no effect, 100 complete control)
Label MET when Crabgrass, Brazil plant response rating < 80; otherwise NOT MET.

Here are 3 compounds together with their reported answers.
smilesnotation=N#Cc1cccc(Oc2ncc(F)cn2)c1-n1cc(Cl)cn1 cat="NOT MET"
smilesnotation=FC(F)(F)COc1cnn(-c2ccccc2Oc2ncc(Cl)cn2)c1 cat=MET
smilesnotation=FCc1cccc(Oc2ncc(Cl)cn2)c1-n1cc(Cl)cn1 cat=MET

Next compound, please.
Hello, I'm reviewing records and need to know if Crabgrass, Brazil plant response rating of "FC(F)(F)c1cnn(-c2c(Cl)cccc2Oc2ncc(Cl)cn2)c1" is below 80. Could you check?
MET
